- TEST DETAILS: Sprague-Dawley Rat PK
- Format: in vivo
- CONDITION INFO: plasma, IV 0.33 mg/Kg
TEST READOUT: half-life (h)
Answers are plain numbers, in h.

- MOLECULE: "Nc1nc2cnc(C(=O)N3CCOC[C@@H]3c3ccc(C(F)(F)F)cc3)cc2c2c1COC2 [AMG193, reference compound]"
  TEST READOUT: "half-life"
  UNIT OF MEASURE: "h"
  VALUE: 1.1

Field: next molecule
Lookup: What does the data say about its half-life? Entry: Nc1nc2cnc(C(=O)N3CCC[C@@H]4Oc5cc(C(F)(F)F)cc(F)c5[C@@H]43)cc2c2c1COC2
Found: 2.5

###

- TEST DETAILS: Sprague-Dawley Rat PK
- Type: in vivo
- CONDITION INFO: IV 0.33 mg/Kg, plasma clearance, read-out: Observed CLp (converted)
TEST READOUT: clearance (mL/min/kg)
Numbers only, in mL/min/kg.

- MOLECULE: "Nc1nc2cnc(C(=O)N3CCC[C@@H]4Oc5cc(C(F)(F)F)cc(F)c5[C@@H]43)cc2c2c1COC2"
  clearance [mL/min/kg]: 14.2

Lookup: What does the data say about its clearance? Entry: Nc1nc2cnc(C(=O)N3CCOC[C@@H]3c3ccc(C(F)(F)F)cc3)cc2c2c1COC2 [AMG193, reference compound]
Found: 37.7
